molecular target: T1, FGFR1c and the cofactor β-Klotho (Homo sapiens, UniProt P11362+Q86Z14); assay: dual-luciferase reporter gene assay in iLite FGF21 assay ready cells; format: cell-based; conditions: Example 6, four-parameter fitting
T1 construct: host or cells: iLite FGF21 assay ready cells (genetically engineered reporter gene cell line)
T1 sequence (P11362 22-822): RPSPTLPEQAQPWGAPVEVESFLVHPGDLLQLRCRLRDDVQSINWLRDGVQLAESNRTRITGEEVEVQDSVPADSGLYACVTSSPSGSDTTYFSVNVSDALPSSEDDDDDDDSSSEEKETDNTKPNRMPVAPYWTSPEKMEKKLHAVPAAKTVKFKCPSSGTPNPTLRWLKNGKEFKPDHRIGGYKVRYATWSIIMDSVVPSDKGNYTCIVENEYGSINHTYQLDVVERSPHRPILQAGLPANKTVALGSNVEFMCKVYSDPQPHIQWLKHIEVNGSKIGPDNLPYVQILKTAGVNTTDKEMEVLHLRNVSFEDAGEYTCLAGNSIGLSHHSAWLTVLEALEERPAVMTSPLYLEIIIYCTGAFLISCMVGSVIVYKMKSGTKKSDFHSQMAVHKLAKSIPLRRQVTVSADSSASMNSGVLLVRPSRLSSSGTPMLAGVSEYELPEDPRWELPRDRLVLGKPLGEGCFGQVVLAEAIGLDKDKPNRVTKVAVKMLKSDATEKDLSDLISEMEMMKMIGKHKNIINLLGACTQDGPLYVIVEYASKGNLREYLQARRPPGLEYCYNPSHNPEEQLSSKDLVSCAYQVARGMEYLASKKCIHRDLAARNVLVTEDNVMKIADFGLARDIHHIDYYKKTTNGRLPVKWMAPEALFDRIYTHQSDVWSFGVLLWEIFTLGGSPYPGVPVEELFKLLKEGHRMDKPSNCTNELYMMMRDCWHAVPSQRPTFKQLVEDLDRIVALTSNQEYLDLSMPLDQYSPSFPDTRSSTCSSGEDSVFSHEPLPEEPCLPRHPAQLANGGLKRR
T1 sequence (Q86Z14 whole entry): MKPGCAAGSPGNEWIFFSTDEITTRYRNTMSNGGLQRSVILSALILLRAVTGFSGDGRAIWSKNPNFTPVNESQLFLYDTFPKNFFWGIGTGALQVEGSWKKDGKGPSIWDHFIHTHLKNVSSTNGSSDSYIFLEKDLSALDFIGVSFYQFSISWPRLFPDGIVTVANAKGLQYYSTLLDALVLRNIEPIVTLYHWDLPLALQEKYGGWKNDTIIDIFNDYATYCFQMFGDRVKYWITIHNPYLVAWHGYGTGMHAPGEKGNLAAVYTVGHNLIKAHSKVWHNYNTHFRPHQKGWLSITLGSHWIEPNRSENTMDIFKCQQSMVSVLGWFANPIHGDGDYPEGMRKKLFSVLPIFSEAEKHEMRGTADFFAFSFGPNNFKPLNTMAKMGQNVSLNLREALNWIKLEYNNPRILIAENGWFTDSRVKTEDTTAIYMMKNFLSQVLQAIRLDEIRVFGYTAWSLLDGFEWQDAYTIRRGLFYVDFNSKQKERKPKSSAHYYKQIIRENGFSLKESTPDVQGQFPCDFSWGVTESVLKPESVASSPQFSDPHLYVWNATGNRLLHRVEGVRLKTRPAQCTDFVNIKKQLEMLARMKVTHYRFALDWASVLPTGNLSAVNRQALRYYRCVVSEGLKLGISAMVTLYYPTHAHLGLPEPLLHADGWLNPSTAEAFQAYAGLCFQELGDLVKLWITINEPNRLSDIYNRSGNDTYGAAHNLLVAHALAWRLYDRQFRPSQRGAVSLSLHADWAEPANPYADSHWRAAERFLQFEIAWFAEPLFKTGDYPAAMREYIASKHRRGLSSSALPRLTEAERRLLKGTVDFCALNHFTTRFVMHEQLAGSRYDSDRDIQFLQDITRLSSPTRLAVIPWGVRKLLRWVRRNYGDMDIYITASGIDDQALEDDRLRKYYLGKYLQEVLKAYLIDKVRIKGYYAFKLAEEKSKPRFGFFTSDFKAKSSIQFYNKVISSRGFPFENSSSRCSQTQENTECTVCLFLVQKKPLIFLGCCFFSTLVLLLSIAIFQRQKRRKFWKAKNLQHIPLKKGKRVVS
observedProperty: pEC50
Please keep in mind that pEC50 is minus log10 of the molar concentration; only the number is needed.

### Prompt Requested read-out: pEC50. Entry: Compound 5.6: FGF21D38C mutant (SEQ NO: 6) modified by the albumin-binding agent of Example 2.2 (conjugate, albumin-binding agent conjugated) HPIPDSSPLLQFGGQVRQRYLYTDDAQQTEAHLEIRECGTVGGAADQSPESLLQLKALKPGVIQILGVKTSRFLCQRPDGALYGSLHFDPEACSFRERLLEDGYNVYQSEAHGLPLHLPGNKSPHRDPAPRGPARFLPLPGLPPAPPEPPGILAPQPPDVGSSDPLSMVGGSQGRSPSYES
### Response 8.69

### Prompt Requested read-out: pEC50. Entry: Compound 5.7: FGF21D46C mutant (SEQ NO: 7) modified by the albumin-binding agent of Example 2.2 (conjugate, albumin-binding agent conjugated) HPIPDSSPLLQFGGQVRQRYLYTDDAQQTEAHLEIREDGTVGGAACQSPESLLQLKALKPGVIQILGVKTSRFLCQRPDGALYGSLHFDPEACSFRERLLEDGYNVYQSEAHGLPLHLPGNKSPHRDPAPRGPARFLPLPGLPPAPPEPPGILAPQPPDVGSSDPLSMVGGSQGRSPSYES
### Response 8.97

Entry source: patent EP4700044A1
